Attribution: patent US20220033501A1

Molecular target: T1, murine TIM-3 protein with hFc tag (mTIM-3-hFc protein) (mouse; human, UniProt Q8VIM0 29-191)
T1 construct: Made in HEK293 cells; also called mouse TIM-3 extracellular domain protein; not shown: human IgG Fc fragment (hFc) of the pCpC vector
T1 chain: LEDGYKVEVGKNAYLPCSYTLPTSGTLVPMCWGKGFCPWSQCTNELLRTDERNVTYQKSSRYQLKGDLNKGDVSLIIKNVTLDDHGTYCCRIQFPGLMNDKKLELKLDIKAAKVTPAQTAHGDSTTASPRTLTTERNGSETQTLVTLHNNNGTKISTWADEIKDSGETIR
Assay: ELISA, coated mTIM-3-hFc; antibody 0.0667 nM
From the text: The amino acid sequence 22-200 of the extracellular domain of the human TIM-3 protein described in the step of Example 1 (as shown in SEQ ID NO. 71 in the sequence listing) was cloned into a pCpC vector having a human IgG Fc fragment (hFc), and transfected into HEK293 cells. […] An ELISA plate reader (TiterMax 384plus, Molecular Device) was used to read the A450 nm value.
Parameter OD450: see the listing below.
I only need the number, thanks.

Observe how each entry below is paired with its result.
# OD450 of 7A4F10 (TIM-3 antibody purified from hybridoma, chimeric antibody of Example 2) (antibody, V domains shown, From hybridoma of Harbour H2L2 transgenic mice: human variable regions, rat constant regions) VH: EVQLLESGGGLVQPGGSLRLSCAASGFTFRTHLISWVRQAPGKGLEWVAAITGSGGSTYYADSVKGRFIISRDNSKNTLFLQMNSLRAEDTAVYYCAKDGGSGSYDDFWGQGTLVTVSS VL: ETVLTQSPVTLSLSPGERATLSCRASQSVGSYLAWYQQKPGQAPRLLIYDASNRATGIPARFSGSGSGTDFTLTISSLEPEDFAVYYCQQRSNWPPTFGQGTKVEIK = 0.62

OD450 measured on 134H3G6 (TIM-3 antibody purified from hybridoma, chimeric antibody of Example 2) (antibody, V domains shown, From hybridoma of Harbour H2L2 transgenic mice: human variable regions, rat constant regions) VH: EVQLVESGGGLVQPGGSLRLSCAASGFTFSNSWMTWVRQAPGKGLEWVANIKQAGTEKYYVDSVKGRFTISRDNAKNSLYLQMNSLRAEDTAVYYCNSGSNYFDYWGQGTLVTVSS VL: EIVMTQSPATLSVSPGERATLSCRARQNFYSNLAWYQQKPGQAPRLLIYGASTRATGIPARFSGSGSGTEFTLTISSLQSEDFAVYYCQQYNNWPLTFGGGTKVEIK = 0.65

Further cases:
Memo: 39E5H1 (TIM-3 antibody purified from hybridoma, chimeric antibody of Example 2) (antibody, V domains shown, From hybridoma of Harbour H2L2 transgenic mice: human variable regions, rat constant regions) VH: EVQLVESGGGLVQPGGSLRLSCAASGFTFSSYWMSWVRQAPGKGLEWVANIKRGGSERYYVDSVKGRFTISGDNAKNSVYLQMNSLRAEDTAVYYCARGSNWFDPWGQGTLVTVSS VL: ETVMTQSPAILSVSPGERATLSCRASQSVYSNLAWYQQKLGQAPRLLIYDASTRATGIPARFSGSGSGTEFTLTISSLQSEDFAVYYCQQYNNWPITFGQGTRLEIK , reported OD450: 0.68
